# Test system: TRKC
# Construct: gene NTRK3
# test.context: concentration: 1 μM, replicates: in singlicate; n = 1;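 further: KINOMEscan kinase panel screen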
Catalogue of molecules with associated %Inh
endpoint: %Inh (%)

[[record]]
smiles = "Cc1cccc(Nc2nc(N[C@H]3CCNC3)ncc2C(N)=O)c1.Cl"
endpoint_result = 18

[[record]]
smiles = "C[C@@H]1CC[C@@H](C(=O)Nc2ccccc2)CN1c1cc(-c2ccc3c(N)n[nH]c3c2)nc(N)n1"
endpoint_result = 13

[[record]]
smiles = "CC(C)c1nc(-c2cccc(NS(=O)(=O)c3c(F)cccc3F)c2F)c(-c2ccnc(Nc3ccc(N4CCOCC4)nc3)n2)s1"
endpoint_result = 51

[[record]]
smiles = "Oc1cc(Nc2ccnc3cc(I)ccc23)ccc1F"
endpoint_result = 26

[[record]]
smiles = "Nc1ncc(-c2ccc3nccc(-c4ccncc4)c3c2)cc1S(=O)(=O)N1CCOCC1"
endpoint_result = 74

[[record]]
smiles = "CN(C)Cc1ccc(-c2ccc3c(Nc4ccc(Oc5ccccn5)cc4)ccnc3c2)o1"
endpoint_result = 35

[[record]]
smiles = "CC(=O)N1CCN(c2ccc(Nc3nccc(-c4sc(C(C)C)nc4-c4cccc(NS(=O)(=O)c5cccc(Cl)c5)c4)n3)cn2)CC1"
endpoint_result = 0

[[record]]
smiles = "CSc1cccc2c(-c3ccncn3)c(-c3ccc(F)cc3)nn12"
endpoint_result = 0


---

# Tested on: ROS1
# test.context: concentration: 1 μM, replicates: in singlicate; n = 1
endpoint: %Inh (%)

[[record]]
compound = "Cl.Cl.NCC(NCc1ccc(-c2ccnc3[nH]ccc23)s1)c1ccccc1 (stereo not drawn)"
system_name = "ROS1"
endpoint = "%Inh"
uom = "%"
endpoint_result = 60

[[record]]
compound = "Fc1ccc(-c2ncn(C3CCNCC3)c2-c2ccnc(Oc3ccc(-c4ccccc4)cc3)n2)cc1"
system_name = "ROS1"
endpoint = "%Inh"
uom = "%"
endpoint_result = 0

[[record]]
compound = "C[C@@H](Oc1cc(-n2cnc3cc(-c4ccnc(NCCS(C)(=O)=O)c4)ccc32)sc1C(N)=O)c1ccccc1Cl"
system_name = "ROS1"
endpoint = "%Inh"
uom = "%"
endpoint_result = 13

[[record]]
compound = "COc1cc(Nc2nccc(-c3c(-c4cccc(NC(=O)c5c(F)cccc5F)c4)nn4ncccc34)n2)cc(OC)c1OC"
system_name = "ROS1"
endpoint = "%Inh"
uom = "%"
endpoint_result = 75

[[record]]
compound = "COc1cc(Nc2nccc(N3CCC(NC(=O)c4cc5ccccc5s4)C3)n2)cc(OC)c1OC (stereo not drawn)"
system_name = "ROS1"
endpoint = "%Inh"
uom = "%"
endpoint_result = 45

[[record]]
compound = "COc1ccc(-c2coc3ccc(-c4nnc(SCc5ccc(OC)c(C(F)(F)F)c5)o4)cc23)cc1"
system_name = "ROS1"
endpoint = "%Inh"
uom = "%"
endpoint_result = 0


---

Catalogue of compounds with associated %Inh
# Tested on: PRKR
# Construct: gene EIF2AK2
# test.context: concentration: 1 μM, replicates: in singlicate; n = 1
endpoint: %Inh (%)

[[record]]
compound = "COc1cc(Nc2ncc3c(C)nc(-c4cc5ccccc5[nH]4)n3n2)cc(OC)c1OC"
endpoint_result = 35

[[record]]
compound = "c1ccc(-c2n[nH]cc2Nc2ccnc3ccccc23)nc1"
endpoint_result = 16

[[record]]
compound = "Cl.Cl.NCC(C(=O)Nc1cc(Br)c(-c2ccnc3[nH]ccc23)s1)c1ccccc1 (centres unmarked)"
endpoint_result = 0

[[record]]
compound = "Cc1occc1-c1ncc(OC[C@@H](N)Cc2c[nH]c3ccccc23)cc1-c1ccc2[nH]nc(C)c2c1.O=C(O)C(F)(F)F"
endpoint_result = 0

[[record]]
compound = "Nc1ncnc2c1nc(-c1ccccc1)n2-c1ccccc1"
endpoint_result = 27

[[record]]
compound = "COc1cc(Nc2nccc(-c3c(-c4cccc(NC(=O)c5c(F)cccc5F)c4)nn4ccccc34)n2)cc(OC)c1OC"
endpoint_result = 15

[[record]]
compound = "COC(=O)Nc1nc2cc(Oc3ccc(NC(=O)Nc4cc(C(F)(F)F)ccc4F)cn3)ccc2[nH]1.Cl.Cl"
endpoint_result = 0

[[record]]
compound = "COc1ccc(CNC(=O)NC2CCN(c3ccnc(Nc4ccc(F)cc4)n3)CC2)cc1"
endpoint_result = 0


---

# Test system: CDC2L1
# Construct: gene CDK11B
# test.context: concentration: 1 μM, replicates: in singlicate; n = 1
Catalogue of molecules with associated %Inh
endpoint: %Inh (%)

[[record]]
molecule = "CN(c1ccc(NC(=O)Nc2cc(C(F)(F)F)ccc2F)cc1)c1ccnc(Nc2ccc(S(N)(=O)=O)cc2)n1"
endpoint_result = 88

[[record]]
molecule = "Cn1cc(-c2ccc3c(c2)CCN3C(=O)Cc2cccc(Cl)c2)c2c(N)ncnc21"
endpoint_result = 0

[[record]]
molecule = "COc1ccc(CNC(=O)NC2CCN(c3ccnc(Nc4ccc(F)cc4)n3)CC2)cc1"
endpoint_result = 0

[[record]]
molecule = "Cl.Cl.NCC(C(=O)Nc1cc(Br)c(-c2ccnc3[nH]ccc23)s1)c1ccccc1 (centres unmarked)"
endpoint_result = 1

[[record]]
molecule = "COc1ccc(Nc2nccc(NCCNC(=O)c3cc4ccccc4s3)n2)cc1"
endpoint_result = 0

[[record]]
molecule = "Cc1occc1-c1ncc(OC[C@@H](N)Cc2c[nH]c3ccccc23)cc1-c1ccc2[nH]nc(C)c2c1.O=C(O)C(F)(F)F"
endpoint_result = 0

[[record]]
molecule = "O=C(Nc1n[nH]c2cc(-c3ccoc3)ccc12)C1CC1"
endpoint_result = 0

[[record]]
molecule = "NCCCC(NC(=O)c1cc(Br)c(-c2ccnc3[nH]ccc23)s1)c1ccccc1.O=C(O)C(F)(F)F.O=C(O)C(F)(F)F (centres unmarked)"
endpoint_result = 0


---

# Test system: ERK5
# Construct: gene MAPK7
# test.context: concentration: 1 μM, replicates: in singlicate; n = 1
endpoint: %Inh (%)

[[record]]
compound = "c1ccc(Oc2ccc(Nc3ccnc4cc(-c5ccc(CNCCN6CCOCC6)o5)ccc34)cc2)nc1"
uom = "%"
endpoint_result = 0

[[record]]
compound = "Cn1cc(-c2[nH]c3cc(NC(=O)[C@H](N)C4CCCCC4)cc4c3c2C=NNC4=O)cn1"
uom = "%"
endpoint_result = 27

[[record]]
compound = "C[C@@H]1CC[C@@H](C(=O)Nc2ccccc2)CN1c1cc(-c2ccc3c(N)n[nH]c3c2)nc(N)n1"
uom = "%"
endpoint_result = 0

[[record]]
compound = "O=C(Nc1n[nH]c2nc(-c3ccc(O)cc3)ccc12)C1CC1"
uom = "%"
endpoint_result = 63

[[record]]
compound = "COc1cc(Nc2nccc(N3CCC(NC(=O)c4cc5ccccc5s4)C3)n2)cc(OC)c1OC (centres unmarked)"
uom = "%"
endpoint_result = 0

[[record]]
compound = "Cl.Cl.NCC(NC(=O)c1cc(-c2ccccc2)c(-c2ccnc3[nH]ccc23)s1)c1ccccc1 (centres unmarked)"
uom = "%"
endpoint_result = 0

[[record]]
compound = "Cl.c1ccc(-c2ccc3c(Nc4ccc5[nH]ncc5c4)ccnc3c2)nc1"
uom = "%"
endpoint_result = 0

[[record]]
compound = "COc1cccc(C(=O)Nc2cccc(Oc3ccc4nc(NC(=O)C5CC5)cn4n3)c2)c1"
uom = "%"
endpoint_result = 0


---

# System: FYN
# test.context: concentration: 1 μM, replicates: in singlicate; n = 1
Catalogue of compounds with associated %Inh
endpoint: %Inh (%)

[[record]]
compound = "Cn1cc(-c2ccc3c(c2)CCN3C(=O)Cc2cccc(F)c2)c2c(N)ncnc21 [GSK2603358]"
endpoint = "%Inh"
uom = "%"
endpoint_result = 0

[[record]]
compound = "COC(=O)Nc1nc2cc(Oc3ccc(NC(=O)Nc4cc(C(F)(F)F)ccc4F)cn3)ccc2[nH]1.Cl.Cl [GW681170]"
endpoint = "%Inh"
uom = "%"
endpoint_result = 41

[[record]]
compound = "Nc1ncc(-c2ccc3nccc(-c4ccncc4)c3c2)cc1S(=O)(=O)N1CCOCC1 [GSK1627798]"
endpoint = "%Inh"
uom = "%"
endpoint_result = 14

[[record]]
compound = "Cl.c1ccc(-c2ccc3c(Nc4ccc5[nH]ccc5c4)ccnc3c2)nc1 [GW440138]"
endpoint = "%Inh"
uom = "%"
endpoint_result = 46


---

# Test system: CTK
# Construct: gene MATK
# test.context: concentration: 1 μM, replicates: in singlicate; n = 1
endpoint: %Inh (%)

[[record]]
compound = "Cc1ccc(F)c(C(=O)Nc2cccc(-c3nn4ccccc4c3-c3ccnc(Nc4cccc(F)c4)n3)c2)c1F"
system_name = "CTK"
endpoint = "%Inh"
endpoint_result = 27

[[record]]
compound = "CC(=O)N1CCN(c2ccc(Nc3nccc(-c4sc(C(C)C)nc4-c4cccc(NS(=O)(=O)c5cccc(Cl)c5)c4)n3)cn2)CC1"
system_name = "CTK"
endpoint = "%Inh"
endpoint_result = 27

[[record]]
compound = "Cl.Cl.NCC(NC(=O)c1cc(-c2ccccc2)c(-c2ccnc3[nH]ccc23)s1)c1ccccc1 (centres unmarked)"
system_name = "CTK"
endpoint = "%Inh"
endpoint_result = 0

[[record]]
compound = "Cl.c1ccc(-c2ccc3c(Nc4ccc5[nH]ncc5c4)ccnc3c2)nc1"
system_name = "CTK"
endpoint = "%Inh"
endpoint_result = 0

[[record]]
compound = "COc1ccc(CNC(=O)NC2CCN(c3ccnc(Nc4ccc(F)cc4)n3)CC2)cc1"
system_name = "CTK"
endpoint = "%Inh"
endpoint_result = 0

[[record]]
compound = "Cc1occc1-c1ncc(OC[C@@H](N)Cc2c[nH]c3ccccc23)cc1-c1ccc2[nH]nc(C)c2c1.O=C(O)C(F)(F)F"
system_name = "CTK"
endpoint = "%Inh"
endpoint_result = 0

[[record]]
compound = "c1ccc(Oc2ccc(Nc3ccnc4cc(-c5ccc(CNCCN6CCOCC6)o5)ccc34)cc2)nc1"
system_name = "CTK"
endpoint = "%Inh"
endpoint_result = 0

[[record]]
compound = "C[C@@H](Oc1cc(-n2cnc3cc(-c4ccnc(NCCS(C)(=O)=O)c4)ccc32)sc1C(N)=O)c1ccccc1Cl"
system_name = "CTK"
endpoint = "%Inh"
endpoint_result = 5

[[record]]
compound = "COc1cc(Nc2nccc(-c3c(-c4cccc(NC(=O)c5c(F)cccc5F)c4)nn4ccccc34)n2)cc(OC)c1OC"
system_name = "CTK"
endpoint = "%Inh"
endpoint_result = 0

[[record]]
compound = "Cl.Cl.NCC(NCc1ccc(-c2ccnc3[nH]ccc23)s1)c1ccccc1 (centres unmarked)"
system_name = "CTK"
endpoint = "%Inh"
endpoint_result = 0

[[record]]
compound = "CC(=O)Nc1nc2cnc(Nc3cc(NC(=O)c4cccc(C5(C#N)CC5)c4Cl)ccc3C)nc2s1"
system_name = "CTK"
endpoint = "%Inh"
endpoint_result = 52

[[record]]
compound = "O=C(Nc1ccccc1F)NC1CCN(c2ccnc(Nc3ccc(F)cc3)n2)CC1"
system_name = "CTK"
endpoint = "%Inh"
endpoint_result = 0

[[record]]
compound = "Cl.c1ccc(-c2ccc3c(Nc4ccc5[nH]ccc5c4)ccnc3c2)nc1"
system_name = "CTK"
endpoint = "%Inh"
endpoint_result = 0

[[record]]
compound = "Cc1ccc(C(=O)N2CC[C@@H](O)C2)cc1-n1c(C)cc(OCc2ccc(F)cc2F)c(Br)c1=O"
system_name = "CTK"
endpoint = "%Inh"
endpoint_result = 0

[[record]]
compound = "FC(F)(F)c1ccc(/C=C/c2cncnc2Nc2ccc3[nH]c(Cc4ccccc4)nc3c2)cc1"
system_name = "CTK"
endpoint = "%Inh"
endpoint_result = 0

[[record]]
compound = "CCCCc1nn2ncccc2c1-c1ccnc(Nc2ccc(N3CCN(C)CC3)cc2)n1"
system_name = "CTK"
endpoint = "%Inh"
endpoint_result = 13

[[record]]
compound = "CN1CCN(Cc2cccc(-c3ccc4c(Nc5ccc(Oc6ccccc6)cc5)ccnc4c3)c2)CC1"
system_name = "CTK"
endpoint = "%Inh"
endpoint_result = 0

[[record]]
compound = "CN(C)S(=O)(=O)c1cc(-c2ccc3nccc(-c4cccc(S(N)(=O)=O)c4)c3c2)cnc1N"
system_name = "CTK"
endpoint = "%Inh"
endpoint_result = 12

[[record]]
compound = "O=C(O)C(F)(F)F.O=C(O)C(F)(F)F.O=c1[nH]ccc2nc(N[C@@H]3CCCNC3)nc(Nc3ccc(S(=O)(=O)N4CCOCC4)cc3)c12"
system_name = "CTK"
endpoint = "%Inh"
endpoint_result = 69

[[record]]
compound = "COc1cccc(C2=C(Nc3ccc(Cl)c(C(=O)O)c3)C(=O)NC2=O)c1"
system_name = "CTK"
endpoint = "%Inh"
endpoint_result = 95.9

[[record]]
compound = "O=C(Nc1cccc(Oc2ccc3nc(NC(=O)C4CC4)cn3n2)c1)c1ccccc1C(F)(F)F"
system_name = "CTK"
endpoint = "%Inh"
endpoint_result = 0

[[record]]
compound = "Oc1cc(Nc2ccnc3cc(I)ccc23)ccc1F"
system_name = "CTK"
endpoint = "%Inh"
endpoint_result = 6

[[record]]
compound = "O=c1[nH]cc(-c2ccc(N3CCOCC3)cc2)c2sc(-c3cn[nH]c3)cc12"
system_name = "CTK"
endpoint = "%Inh"
endpoint_result = 0

[[record]]
compound = "COc1cccc(NC(=O)NC2CCN(c3ccnc(Nc4cc(OC)c(OC)c(OC)c4)n3)C2)c1 (centres unmarked)"
system_name = "CTK"
endpoint = "%Inh"
endpoint_result = 0

[[record]]
compound = "O=C(NC1CCN(c2ccnc(Nc3ccc(F)cc3)n2)C1)c1cc2ccccc2s1 (centres unmarked)"
system_name = "CTK"
endpoint = "%Inh"
endpoint_result = 0

[[record]]
compound = "CCc1ccc(-c2ccc3c(c2)-c2c(cnn2C)S(=O)(=O)N3C)cc1"
system_name = "CTK"
endpoint = "%Inh"
endpoint_result = 26

[[record]]
compound = "COc1cccc(-c2ccc3c(NC(=O)C4CC4)n[nH]c3n2)c1"
system_name = "CTK"
endpoint = "%Inh"
endpoint_result = 0

[[record]]
compound = "CC(C)(C)c1ccc2nccc(Nc3cccc(O)c3)c2c1"
system_name = "CTK"
endpoint = "%Inh"
endpoint_result = 0

[[record]]
compound = "CC(C)c1nc(-c2cccc(NS(=O)(=O)c3c(F)cccc3F)c2F)c(-c2ccnc(Nc3ccc(N4CCOCC4)nc3)n2)s1"
system_name = "CTK"
endpoint = "%Inh"
endpoint_result = 55

[[record]]
compound = "c1ccc(-c2cnc3nccnn23)cc1"
system_name = "CTK"
endpoint = "%Inh"
endpoint_result = 0

[[record]]
compound = "CN1CCN(CCCNc2nccc(-c3c(-c4ccc(F)cc4)nn4cc(C(F)(F)F)ccc34)n2)CC1"
system_name = "CTK"
endpoint = "%Inh"
endpoint_result = 0

[[record]]
compound = "CN(C)Cc1ccc(-c2ccc3c(Nc4ccc(Oc5ccccn5)cc4)ccnc3c2)o1"
system_name = "CTK"
endpoint = "%Inh"
endpoint_result = 16

